Biological target: T1, TRBP-dsRBD1 (UniProt Q15633-2 9-85)
T1 sequence: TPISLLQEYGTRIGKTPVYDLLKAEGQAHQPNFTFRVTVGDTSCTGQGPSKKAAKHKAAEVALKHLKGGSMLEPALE
Test: EMSA; apparent Kd; nH 1.5; 50 mM sodium cacodylate pH 7.0, 50 mM potassium glutamate, 5% glycerol; EMSA 0.5 pM RNA, 30 min at room temperature, gel 0.25X TBE at 10 C; CD at 10 C with 5-15 uM RNA
Conditions: protein: recombinant; label: 5'-32P top strand (EMSA); blunt
Readout: pKd
Give bare numbers, as −log10 of the molar value.

Could you tell me which pKd is on file for ds22 (dsRNA) RNA 1: GUCAGCAGUGCCUUAGCAGCAC RNA 2: GUGCUGCUAAGGCACUGCUGAC ? 5.46
